Target: EpHB4 (Homo sapiens, UniProt P54760)
Sequence (P54760 16-987): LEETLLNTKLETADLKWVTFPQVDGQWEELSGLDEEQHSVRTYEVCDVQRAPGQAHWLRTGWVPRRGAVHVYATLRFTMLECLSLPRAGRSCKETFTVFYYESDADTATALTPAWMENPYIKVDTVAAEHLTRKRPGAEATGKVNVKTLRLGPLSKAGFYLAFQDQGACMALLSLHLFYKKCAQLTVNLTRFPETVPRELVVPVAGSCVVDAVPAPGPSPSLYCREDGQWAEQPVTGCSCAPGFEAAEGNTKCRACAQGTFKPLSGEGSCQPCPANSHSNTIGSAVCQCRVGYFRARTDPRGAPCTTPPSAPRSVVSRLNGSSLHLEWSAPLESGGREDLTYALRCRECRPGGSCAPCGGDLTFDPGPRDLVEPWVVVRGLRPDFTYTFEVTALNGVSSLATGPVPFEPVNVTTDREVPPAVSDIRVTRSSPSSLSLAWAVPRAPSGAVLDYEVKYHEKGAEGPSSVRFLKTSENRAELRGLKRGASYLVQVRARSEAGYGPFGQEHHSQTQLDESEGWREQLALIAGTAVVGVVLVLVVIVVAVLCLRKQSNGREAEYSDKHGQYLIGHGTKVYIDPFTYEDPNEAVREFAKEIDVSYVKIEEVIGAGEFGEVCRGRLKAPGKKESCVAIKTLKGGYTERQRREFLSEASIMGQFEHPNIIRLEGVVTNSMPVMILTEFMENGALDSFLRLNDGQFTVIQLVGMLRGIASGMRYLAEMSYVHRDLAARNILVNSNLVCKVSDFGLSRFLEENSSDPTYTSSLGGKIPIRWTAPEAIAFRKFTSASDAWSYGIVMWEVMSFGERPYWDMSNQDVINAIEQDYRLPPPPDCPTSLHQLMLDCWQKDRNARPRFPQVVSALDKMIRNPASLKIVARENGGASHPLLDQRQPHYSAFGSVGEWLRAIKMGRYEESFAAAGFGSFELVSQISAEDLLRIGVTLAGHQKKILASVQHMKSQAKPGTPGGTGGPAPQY
Experiment: NanoBRET target engagement
Assay type: cell-based
measured parameter: IC50 (nM)
Respond numerically; units are nM and should not be typed.

input: If you can, please state the reported IC50 value of CNc1ncc2cc(-c3ccccc3Cl)c(=O)n(CCCCN)c2n1 [compound 4] .
output: 50

input: Let us now turn to CNc1ncc2cc(-c3cc(Cl)ccc3Cl)c(=O)n(CCCCN)c2n1 [compound 8]
output: 188

====

biological target: EpHB2 (Homo sapiens, UniProt P29323); experiment: NanoBRET target engagement
Sequence (P29323 19-1055): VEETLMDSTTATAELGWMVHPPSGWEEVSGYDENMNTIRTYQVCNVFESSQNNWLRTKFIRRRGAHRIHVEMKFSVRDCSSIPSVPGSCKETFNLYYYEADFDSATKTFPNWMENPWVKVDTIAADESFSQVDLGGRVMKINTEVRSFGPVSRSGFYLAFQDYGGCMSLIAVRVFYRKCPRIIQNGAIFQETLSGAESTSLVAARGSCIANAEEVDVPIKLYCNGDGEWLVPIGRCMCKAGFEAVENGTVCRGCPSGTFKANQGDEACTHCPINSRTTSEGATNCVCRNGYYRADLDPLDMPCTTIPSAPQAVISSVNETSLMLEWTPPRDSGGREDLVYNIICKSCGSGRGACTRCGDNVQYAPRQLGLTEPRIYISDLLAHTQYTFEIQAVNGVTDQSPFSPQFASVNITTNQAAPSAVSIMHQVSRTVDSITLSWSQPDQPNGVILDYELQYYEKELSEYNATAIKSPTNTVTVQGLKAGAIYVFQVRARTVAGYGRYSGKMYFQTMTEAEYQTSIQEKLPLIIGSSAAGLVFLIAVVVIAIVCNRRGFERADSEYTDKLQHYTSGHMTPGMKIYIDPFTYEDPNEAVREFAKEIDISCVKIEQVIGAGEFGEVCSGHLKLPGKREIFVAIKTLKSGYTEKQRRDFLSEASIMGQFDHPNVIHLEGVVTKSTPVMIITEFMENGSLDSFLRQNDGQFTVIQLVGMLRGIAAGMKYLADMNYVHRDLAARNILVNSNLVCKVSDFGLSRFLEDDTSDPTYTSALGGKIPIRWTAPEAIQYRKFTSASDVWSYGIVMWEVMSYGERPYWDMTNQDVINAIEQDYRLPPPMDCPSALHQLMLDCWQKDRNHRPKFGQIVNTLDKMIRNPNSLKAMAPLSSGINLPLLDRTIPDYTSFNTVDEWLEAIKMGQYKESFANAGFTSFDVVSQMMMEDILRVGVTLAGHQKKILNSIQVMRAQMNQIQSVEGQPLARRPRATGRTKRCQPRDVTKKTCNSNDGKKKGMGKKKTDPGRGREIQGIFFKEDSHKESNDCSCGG
pIC50: −log10 of the molar value.
measured parameter: pIC50

input: GET /values?readout=pIC50&system=EpHB2 (Homo sapiens, UniProt P29323)&item= CNc1ncc2cc(-c3ccccc3Cl)c(=O)n(CCCCN)c2n1 [compound 4]
output: < 6.00

input: Let us now turn to CNc1ncc2cc(-c3cc(Cl)ccc3Cl)c(=O)n(CCCCN)c2n1 [compound 8]
output: < 6.00

====

target: EpHB4 (Homo sapiens); experiment: NanoBRET target engagement; type: cell-based; settings: intact mode, HEK293T, 37 °C, 2 h, tracer displacement
measured parameter: pIC50
Quick note: pIC50 values are minus log10 of concentrations in mol/L.

input: If you can, please state the reported pIC50 value of CNc1ncc2cc(-c3cc(F)ccc3F)c(=O)n(CCCCN)c2n1 .
output: 6.22

====

target: SIK2 (Homo sapiens); assay: NanoBRET target engagement; conditions: intact mode, HEK293T, 37 °C, 2 h, tracer displacement
Sequence (Q9H0K1 whole entry): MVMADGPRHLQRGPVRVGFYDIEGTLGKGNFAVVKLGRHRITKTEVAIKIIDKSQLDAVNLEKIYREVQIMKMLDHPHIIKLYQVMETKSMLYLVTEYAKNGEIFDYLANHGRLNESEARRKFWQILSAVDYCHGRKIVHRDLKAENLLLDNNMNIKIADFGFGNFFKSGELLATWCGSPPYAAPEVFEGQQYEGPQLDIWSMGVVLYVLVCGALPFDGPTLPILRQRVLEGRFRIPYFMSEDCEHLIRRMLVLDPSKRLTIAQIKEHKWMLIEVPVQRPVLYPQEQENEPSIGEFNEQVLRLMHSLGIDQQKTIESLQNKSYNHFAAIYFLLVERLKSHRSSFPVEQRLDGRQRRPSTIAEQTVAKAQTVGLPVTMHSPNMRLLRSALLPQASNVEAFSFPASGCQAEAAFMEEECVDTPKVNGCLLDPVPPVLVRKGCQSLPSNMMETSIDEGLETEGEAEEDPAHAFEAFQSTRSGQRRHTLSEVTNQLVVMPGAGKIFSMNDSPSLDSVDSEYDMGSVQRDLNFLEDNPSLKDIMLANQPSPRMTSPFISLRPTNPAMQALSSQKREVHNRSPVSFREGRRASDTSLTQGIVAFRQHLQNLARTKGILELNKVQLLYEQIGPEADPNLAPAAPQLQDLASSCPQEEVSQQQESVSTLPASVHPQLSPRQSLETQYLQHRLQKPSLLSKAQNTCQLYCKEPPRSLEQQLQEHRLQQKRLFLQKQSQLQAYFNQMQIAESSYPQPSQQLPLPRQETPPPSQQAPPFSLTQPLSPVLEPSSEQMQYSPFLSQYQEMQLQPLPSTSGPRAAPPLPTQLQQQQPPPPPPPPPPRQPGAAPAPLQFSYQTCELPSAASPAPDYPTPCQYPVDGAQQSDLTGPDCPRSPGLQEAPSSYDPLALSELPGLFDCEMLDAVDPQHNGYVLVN
measured parameter: pIC50
Quick note: pIC50 values are minus log10 of concentrations in mol/L.

input: GET /values?readout=pIC50&system=SIK2 (Homo sapiens)&item= CNc1ncc2cc(-c3cc(Br)ccc3Br)c(=O)n(CCCCN)c2n1
output: 5.57

input: Let us now turn to CNc1ncc2cc(-c3cc(Cl)ccc3Br)c(=O)n(CCCCN)c2n1
output: 5.96

input: Let us now turn to CNc1ncc2cc(-c3cc(F)c(-c4cccc(C)n4)cc3F)c(=O)n(CCCCN)c2n1
output: 7.51

input: Let us now turn to CNc1ncc2cc(-c3ccccc3Cl)c(=O)n(CCCCN)c2n1
output: 7.13

input: Let us now turn to CNc1ncc2cc(-c3cc(Br)ccc3Cl)c(=O)n(C[C@H]3OC[C@H](N)CO3)c2n1
output: 5.36

input: Let us now turn to CNc1ncc2cc(-c3cc(F)ccc3F)c(=O)n(CCCCN)c2n1
output: 7.05

input: Let us now turn to CNc1ncc2cc(-c3cc(Br)ccc3Cl)c(=O)n(CCCCN)c2n1
output: 5.85

input: Let us now turn to CNc1ncc2cc(-c3cc(C(F)(F)F)ccc3Cl)c(=O)n(CCCCN)c2n1
output: 5.21

input: Let us now turn to CNc1ncc2cc(-c3cc(Cl)ccc3Cl)c(=O)n(CCCCN)c2n1
output: 6.18

====

biological target: EpHA4 (Homo sapiens); assay: NanoBRET target engagement
Sequence (P54764 20-986): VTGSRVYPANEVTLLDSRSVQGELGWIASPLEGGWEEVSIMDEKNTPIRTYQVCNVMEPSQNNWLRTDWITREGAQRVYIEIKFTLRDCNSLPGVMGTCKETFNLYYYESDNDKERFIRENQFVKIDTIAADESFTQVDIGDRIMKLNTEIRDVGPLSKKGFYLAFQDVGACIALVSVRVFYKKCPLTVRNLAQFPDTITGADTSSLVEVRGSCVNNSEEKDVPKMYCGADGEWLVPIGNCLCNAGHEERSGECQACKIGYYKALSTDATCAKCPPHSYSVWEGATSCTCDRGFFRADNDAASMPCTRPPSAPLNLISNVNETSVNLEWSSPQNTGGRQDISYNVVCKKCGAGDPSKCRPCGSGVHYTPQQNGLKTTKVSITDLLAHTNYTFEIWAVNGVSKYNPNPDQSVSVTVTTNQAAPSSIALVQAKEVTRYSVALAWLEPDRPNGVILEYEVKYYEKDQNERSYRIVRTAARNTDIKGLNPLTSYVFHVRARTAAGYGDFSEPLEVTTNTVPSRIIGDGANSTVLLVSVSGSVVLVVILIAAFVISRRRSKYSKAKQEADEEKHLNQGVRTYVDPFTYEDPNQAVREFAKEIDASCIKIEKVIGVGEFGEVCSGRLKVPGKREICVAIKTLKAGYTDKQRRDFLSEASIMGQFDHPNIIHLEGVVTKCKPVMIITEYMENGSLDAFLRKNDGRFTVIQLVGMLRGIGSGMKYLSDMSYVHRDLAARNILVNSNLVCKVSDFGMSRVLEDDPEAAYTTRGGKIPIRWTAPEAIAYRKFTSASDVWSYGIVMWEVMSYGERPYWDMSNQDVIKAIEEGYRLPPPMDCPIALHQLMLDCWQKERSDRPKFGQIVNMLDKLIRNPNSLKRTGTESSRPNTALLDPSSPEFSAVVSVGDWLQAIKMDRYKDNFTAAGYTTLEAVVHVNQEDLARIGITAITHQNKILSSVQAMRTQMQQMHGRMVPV
So I've got a bunch of molecules here, and I need their pIC50 values.
Quick note: pIC50 values are minus log10 of concentrations in mol/L.

input: If you can, please state the reported pIC50 value of CNc1ncc2cc(-c3ccccc3Cl)c(=O)n(CCCCN)c2n1 .
output: 7.18

input: Let us now turn to CNc1ncc2cc(-c3cc(Cl)ccc3Cl)c(=O)n(CCCCN)c2n1
output: 6.46

====

Target: MST2 (Homo sapiens)
Sequence (Q13188 1-491): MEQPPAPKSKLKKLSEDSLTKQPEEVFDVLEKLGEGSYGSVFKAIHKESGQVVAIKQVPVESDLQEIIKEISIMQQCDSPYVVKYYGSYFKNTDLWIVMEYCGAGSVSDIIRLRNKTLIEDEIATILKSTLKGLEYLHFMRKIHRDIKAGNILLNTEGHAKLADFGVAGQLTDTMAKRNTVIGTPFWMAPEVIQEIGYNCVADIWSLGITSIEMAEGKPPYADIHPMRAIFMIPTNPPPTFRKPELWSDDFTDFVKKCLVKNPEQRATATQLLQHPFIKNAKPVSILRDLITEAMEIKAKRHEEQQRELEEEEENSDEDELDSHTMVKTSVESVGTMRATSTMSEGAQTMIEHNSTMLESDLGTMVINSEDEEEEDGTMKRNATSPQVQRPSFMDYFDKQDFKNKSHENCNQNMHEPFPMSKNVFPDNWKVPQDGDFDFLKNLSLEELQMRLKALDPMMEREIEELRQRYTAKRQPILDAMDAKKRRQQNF
Test: biochemical
Details: read-out: dTm MST2
measured parameter: ΔTm at 10 µM
Kindly report the value followed by its unit.

input: If you can, please state the reported ΔTm at 10 µM value of CNc1ncc2cc(-c3cc(F)c(-c4cccc(C)n4)cc3F)c(=O)n(CCCCN)c2n1 [compound 12] .
output: 5.2 °C

input: Let us now turn to CNc1ncc2cc(-c3cc(C(F)(F)F)ccc3Cl)c(=O)n(CCCCN)c2n1 [compound 9]
output: 0.8 °C

input: Let us now turn to CNc1ncc2cc(-c3cc(Cl)ccc3Cl)c(=O)n(CCCCN)c2n1 [compound 8]
output: 1.4 °C

input: Let us now turn to CNc1ncc2cc(-c3cc(Br)ccc3Br)c(=O)n(CCCCN)c2n1 [compound 11]
output: 1.4 °C

input: Let us now turn to CNc1ncc2cc(-c3cc(Br)ccc3Cl)c(=O)n(CCCCN)c2n1 [compound 6]
output: 2.5 °C

input: Let us now turn to CNc1ncc2cc(-c3cc(Br)ccc3Cl)c(=O)n(C[C@H]3OC[C@H](N)CO3)c2n1 [compound 7]
output: 1.5 °C

input: Let us now turn to CNc1ncc2cc(-c3cc(F)ccc3F)c(=O)n(CCCCN)c2n1 [compound 5]
output: 0.6 °C

input: Let us now turn to CNc1ncc2cc(-c3ccccc3Cl)c(=O)n(CCCCN)c2n1 [compound 4]
output: 2.2 °C

input: Let us now turn to CNc1ncc2cc(-c3cc(Cl)ccc3Br)c(=O)n(CCCCN)c2n1 [compound 10]
output: 1.4 °C

====

molecular target: EpHB1 (Homo sapiens, UniProt P54762); assay: NanoBRET target engagement; assay type: cell-based
Sequence (P54762 18-984): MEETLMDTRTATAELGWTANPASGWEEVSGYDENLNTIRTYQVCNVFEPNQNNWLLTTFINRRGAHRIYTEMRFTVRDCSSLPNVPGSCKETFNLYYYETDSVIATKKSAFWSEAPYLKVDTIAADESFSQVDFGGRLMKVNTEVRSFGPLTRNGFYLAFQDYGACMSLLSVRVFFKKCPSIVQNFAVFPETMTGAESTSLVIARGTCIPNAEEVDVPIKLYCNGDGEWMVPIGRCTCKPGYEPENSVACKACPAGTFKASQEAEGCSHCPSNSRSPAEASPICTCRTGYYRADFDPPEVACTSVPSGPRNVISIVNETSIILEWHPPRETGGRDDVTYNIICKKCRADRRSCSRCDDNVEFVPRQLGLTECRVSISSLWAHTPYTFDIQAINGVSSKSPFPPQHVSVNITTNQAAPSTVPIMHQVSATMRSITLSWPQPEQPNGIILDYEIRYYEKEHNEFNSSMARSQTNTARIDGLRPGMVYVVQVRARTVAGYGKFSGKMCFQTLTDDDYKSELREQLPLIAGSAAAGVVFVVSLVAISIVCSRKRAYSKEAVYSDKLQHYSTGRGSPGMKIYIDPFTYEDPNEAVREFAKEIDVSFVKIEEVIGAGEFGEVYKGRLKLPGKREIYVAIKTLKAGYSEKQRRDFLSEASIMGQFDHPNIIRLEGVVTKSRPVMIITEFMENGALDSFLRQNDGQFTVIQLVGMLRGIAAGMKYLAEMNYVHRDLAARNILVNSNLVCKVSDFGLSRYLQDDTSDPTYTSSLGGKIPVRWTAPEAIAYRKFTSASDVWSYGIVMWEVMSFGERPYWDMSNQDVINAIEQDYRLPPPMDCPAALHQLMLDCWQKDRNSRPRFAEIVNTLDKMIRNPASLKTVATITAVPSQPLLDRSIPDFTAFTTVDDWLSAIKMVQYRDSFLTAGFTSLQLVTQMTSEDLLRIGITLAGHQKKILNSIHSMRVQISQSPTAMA
measured parameter: IC50
Kindly report the value followed by its unit.

input: If you can, please state the reported IC50 value of CNc1ncc2cc(-c3ccccc3Cl)c(=O)n(CCCCN)c2n1 .
output: 78 nM

input: Let us now turn to CNc1ncc2cc(-c3cc(Cl)ccc3Cl)c(=O)n(CCCCN)c2n1
output: 302 nM

====

Biological target: EpHA1 (Homo sapiens)
Sequence (P21709 26-976): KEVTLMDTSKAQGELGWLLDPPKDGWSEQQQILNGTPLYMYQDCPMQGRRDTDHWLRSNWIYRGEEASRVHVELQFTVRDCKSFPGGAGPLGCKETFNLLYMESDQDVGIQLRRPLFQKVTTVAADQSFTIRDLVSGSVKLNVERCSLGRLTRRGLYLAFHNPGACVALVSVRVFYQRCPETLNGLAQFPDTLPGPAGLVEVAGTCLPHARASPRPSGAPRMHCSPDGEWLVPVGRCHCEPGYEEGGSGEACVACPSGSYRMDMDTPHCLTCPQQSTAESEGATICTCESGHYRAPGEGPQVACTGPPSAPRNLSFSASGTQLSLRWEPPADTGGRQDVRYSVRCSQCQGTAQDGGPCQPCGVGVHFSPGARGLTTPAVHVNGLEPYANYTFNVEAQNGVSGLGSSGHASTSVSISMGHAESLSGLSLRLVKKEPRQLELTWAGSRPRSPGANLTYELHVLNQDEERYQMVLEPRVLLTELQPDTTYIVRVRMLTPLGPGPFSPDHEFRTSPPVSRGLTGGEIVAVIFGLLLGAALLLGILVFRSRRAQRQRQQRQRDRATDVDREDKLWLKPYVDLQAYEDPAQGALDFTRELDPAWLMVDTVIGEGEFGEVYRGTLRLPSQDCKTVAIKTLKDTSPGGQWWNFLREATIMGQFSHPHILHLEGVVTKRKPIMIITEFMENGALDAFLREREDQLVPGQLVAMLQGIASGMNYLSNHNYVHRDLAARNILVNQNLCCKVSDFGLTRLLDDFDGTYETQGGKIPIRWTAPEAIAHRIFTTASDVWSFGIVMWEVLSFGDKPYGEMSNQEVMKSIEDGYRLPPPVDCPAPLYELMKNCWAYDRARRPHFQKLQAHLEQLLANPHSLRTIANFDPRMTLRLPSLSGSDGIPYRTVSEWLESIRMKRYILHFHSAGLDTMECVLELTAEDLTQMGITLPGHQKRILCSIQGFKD
Test: NanoBRET target engagement
Type: cell-based
So I've got a bunch of compounds here, and I need their IC50 values.
Respond numerically; units are nM and should not be typed.

input: If you can, please state the reported IC50 value of CNc1ncc2cc(-c3ccccc3Cl)c(=O)n(CCCCN)c2n1 [compound 4] .
output: 12

input: Let us now turn to CNc1ncc2cc(-c3cc(Cl)ccc3Cl)c(=O)n(CCCCN)c2n1 [compound 8]
output: 82
